Consider the following compounds; for each one, report its residual activity.
- Measured Target: Activin receptor type-1B (Homo sapiens)
- Condition: at 10 µM
Field: numeric (%). Do not append units.

The measured residual activity associated with "O=c1cc(N2CCOCC2)oc2c1ccc1ccccc12" reads 104

Measured residual activity, "COc1ccc2c(c1)c(C1=C(c3c[nH]c4ccccc34)C(=O)NC1=O)cn2CCCN(C)C" : 47

residual activity reported for this compound "N#Cc1c(NC(=O)c2cccc3ccccc23)sc2c1CCCC2" : 93

Lab note: "O=C(CCCc1ccc(-c2ccccc2F)cc1)Nc1ccc(O)cc1" gave residual activity of 94

----------
- Measured Target: 3-phosphoinositide-dependent protein kinase 1 (Homo sapiens) (UniProt O15530)
- Sequence (whole entry): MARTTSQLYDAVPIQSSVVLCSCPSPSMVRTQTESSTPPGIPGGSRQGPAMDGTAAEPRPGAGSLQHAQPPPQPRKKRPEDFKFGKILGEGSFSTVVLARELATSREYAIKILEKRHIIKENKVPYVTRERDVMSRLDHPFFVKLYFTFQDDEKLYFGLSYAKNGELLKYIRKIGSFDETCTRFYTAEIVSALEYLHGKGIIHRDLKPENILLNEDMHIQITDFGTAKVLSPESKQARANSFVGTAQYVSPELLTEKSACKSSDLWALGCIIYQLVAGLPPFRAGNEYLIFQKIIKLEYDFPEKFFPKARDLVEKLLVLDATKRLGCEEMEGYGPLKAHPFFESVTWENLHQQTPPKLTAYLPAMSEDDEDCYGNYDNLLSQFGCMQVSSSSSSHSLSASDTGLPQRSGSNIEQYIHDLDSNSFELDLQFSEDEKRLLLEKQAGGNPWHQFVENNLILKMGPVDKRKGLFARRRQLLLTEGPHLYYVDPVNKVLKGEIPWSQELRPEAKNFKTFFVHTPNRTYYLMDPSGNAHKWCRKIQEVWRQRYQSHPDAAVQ
- Condition: at 1 µM
Task for the reader: assign each of the following compounds its reported residual activity.
Reply numerically in %, unit not repeated.

What the record says about "O=C1NC(=O)C(c2c[nH]c3ccccc23)=C1c1c[nH]c2ccccc12" : residual activity is 71

The compound listed as "Nc1ncnc2c1c(-c1ccc(Oc3ccccc3)cc1)cn2C1CCCC1" has a reported residual activity of 104

// "CCCCc1c(-c2ccc(OC)cc2)[nH]c2nccnc12" : residual activity value = 70

Entry under test: "Nc1nc(Nc2ccc(S(N)(=O)=O)cc2)nn1C(=O)c1c(F)cccc1F" . Its residual activity was 68

Per the record, "NC(=O)Nc1sc(-c2ccc(F)cc2)cc1C(N)=O" has residual activity of 57

Sample "O=C(O)/C=C/c1cc(Br)c(Br)c(Br)c1Br" ; residual activity observed: 107

Reported residual activity for "COc1ccc2c(c1)c(C1=C(c3c[nH]c4ccccc34)C(=O)NC1=O)cn2CCCN(C)C" was 62

residual activity reported for this compound "O=C(c1cc2cc(O)ccc2[nH]1)c1cc2cc(O)ccc2[nH]1" : 79

Sure, the documented residual activity for "c1ccc(-c2cnc(Nc3ccc(OCCN4CCCC4)cc3)s2)cc1" is 113

Given item "CC(C)(C)c1nc2c3ccc(F)cc3c3c(=O)[nH]ccc3c2[nH]1" , the value recorded as its residual activity is 3

residual activity measured on "O=C(CCCc1ccc(-c2ccccc2F)cc1)Nc1ccc(O)cc1" = 105

All figures here come from ChEMBL document CHEMBL2218924.
